Tested on: SNB-75
Assay: NCI tumour cell line growth inhibition, 48 h
Active and inactive are the calls of the source. Cut-off read from the data, not from the text of the source: active = GI50 up to about 1.1 µM and inactive = higher. Where a SMILES comes first, the peptide text is derived from it. [ ]: non-standard residue; d: D form. The star is where a group is joined. NMeAc5c = CNC1(C(=O)O)CCCC1; Boc = CC(C)(C)OC(=O)*; OBn = c1ccc(CO*)cc1
Select the matching outcome among active, inactive

Some solved cases for reference:
O=C1N[C@@H]2C(=C[C@H](O)[C@@H](O)[C@H]2O)c2cc3c(c(O)c21)OCO3 [NARCICLASINE] | active
C#CCOCn1cnc2c(Sc3c([N+](=O)[O-])ncn3C)ncnc21 | inactive
C=C1C(=O)OC2/C=C(/CO)C3(O)CC(O)C(C)(CC(OC(=O)/C(C)=C/C)C12)O3 (stereo unspecified) | inactive
CN(C(=O)C(Cc1ccccc1)NC(=O)OC(C)(C)C)C1(C(=O)NC(Cc2ccccc2)C(=O)OCc2ccccc2)CCCC1 (stereo not drawn) (Boc-Phe-[NMeAc5c]-Phe-OBn; configuration not given here) | inactive
O=P(Oc1ccc(Cl)cc1)(Oc1ccc(Cl)cc1)N1CC1 | inactive

Lab note: next molecule to report on.
Task item: Please state the recorded outcome for this molecule: Nc1cc[nH]c(=O)n1
Reply: inactive

Measured values drawn from ChEMBL document CHEMBL1201862 for this set.
